test system: SNB-19 CNS; experiment: NCI-60 one-dose screen, 48 h; conditions: 10 µM
About 83,000 compounds went through this panel and 20% of them were active in at least one assay; those are over-represented in the sample as a whole. Activity calls are given as the source filed them. How the source made its calls: active means growth percent below 10; inactive means the rest.
Outcomes: active, inactive

STRUCTURE NOTATION | CLASS NAME
Cc1ccc(Nc2nnc(-c3cc(-c4ccncc4)n(-c4ccccc4)n3)s2)cc1 | inactive
CCN(CCCCCCCCCCN1CC(=O)N(CCCCCCCCCCN(CC)Cc2ccccc2OC)CC1=O)Cc1ccccc1OC | active
CN(C)CCN1C(=O)c2cccc3cc(N)cc(c23)C1=O | inactive

====

Listing: growth of selected compounds
test system: HS 578T breast; assay: NCI-60 one-dose screen, 48 h (100 = growth as untreated, 0 = no growth, -100 = all killed); conditions: 10 µM
The panel holds about 83,000 compounds, 20% with a hit somewhere; the sample as a whole holds those more often.

COMPOUND | growth / %
CCOCCOCCOCCOCCOCCOCCOCCOCCOCCO (tested in a mixture with another compound) | 39.6
COc1ccc(-c2nn(-c3cccc(NC(=O)Nc4ccc(Cl)c(C(F)(F)F)c4)c3)cc2-c2ccncc2)cc1Cl | 33.8
COc1ccc(NC(=O)CSc2nc3ccccc3c(=O)n2CCc2ccccc2)cc1 | 51.2
Clc1cc2c(c(CSc3nc4ccccc4n4cccc34)c1)OCOC2 | 91.8
O=S(=O)(NCCNc1nccc(-c2c(-c3ccc(F)cc3)nc3sccn23)n1)c1ccc2ccccc2c1 | 111
c1ccc([C@H]2CN3CCSC3=N2)cc1 | 85.7
O=C(Nc1cccc(-n2cc(-c3ccncc3)c(-c3ccc(O)c(Cl)c3)n2)c1)c1ccc(Cl)c(Cl)c1 | 53.8
Cc1ccc(CC#N)cc1C | 173
CN(C)CCN1C(=O)c2cccc3c(-c4ccc5ncn(C6CCCCC6)c5c4)ccc(c23)C1=O | 40.8
CNc1ncc(-c2ccc(C(F)(F)F)cc2)c(NC2CCCCCC2)n1 | 99.6
CN(C)c1ccc(N=C2C=CC(=O)c3ccccc32)cc1 | 95.6
O=C(O)c1ccc(Cl)cc1Nc1ccc(F)cc1 | 94.3

====

tested on: SK-MEL-28 melanoma; assay: NCI-60 one-dose screen, 48 h; conditions: 10 µM
About 83,000 compounds went through this panel and 20% of them were active in at least one assay; those are over-represented in the sample as a whole. Activity calls are given as the source filed them. How the source made its calls: active means growth percent below 10; inactive means the rest.
Possible outcomes: T (active), F (inactive)

COMPOUND | CLASS NAME
COc1ccc(Nc2ncnc3c2c(SC)nn3-c2ccccc2)cc1 | F
CC/C(=C(/c1ccc(OCCN(C)C)cc1)c1ccc(OC(=O)CCCCC(=O)c2c(C)[nH]c(/C=C3\N=C(c4ccc[nH]4)C=C3OC)c2C)cc1)c1ccccc1 | F
COc1ccc(CN2CCC(N3CCCC3=O)c3cc(Cl)ccc32)cc1 (centres undefined) | F
CC1(C)OC2=C(CC1Br)C(=O)C(=O)c1ccccc12 (centres undefined) | T

====

tested on: SNB-75 CNS; assay: NCI-60 one-dose screen, 48 h (100 = growth as untreated, 0 = no growth, -100 = all killed); details: 10 µM
This is part of a sample that, as a whole, favours compounds with a hit. Of some 83,000 tested, about 20% had one in any assay.
Labelling field: enter True if recorded growth is less than 70%. Enter False if it equals or exceeds that cut-off.

COMPOUND | CLASS NAME
CN1CCC2(CC1)NC(=O)c1c(c3ccc(Cl)c(Cl)c3n1C)C2C#N (stereo unspecified) | True
NC(=O)CC1(c2ccccc2)CCCCC1 | False
COc1ccc(N=C2C(=Nc3ccc(OC)cc3)N(c3ccc(N(C)C)cc3)C(=S)N2c2ccc(OC)cc2)cc1 | True
CS(=O)(=O)Nc1ccc(Nc2c3ccccc3nc3cc(N)ccc23)cc1 | True
COc1ccc(-c2nn(-c3cccc(NC(=O)c4ccc(N5CCOCC5)c(C(F)(F)F)c4)c3)cc2-c2ccncc2)cc1Cl | True
CCN(CC)CCCC(C)Nc1ccc2ccc(Cl)cc2n1 (stereo unspecified) | False
CCOC(=O)C1(CC(C)C)CCOC1=O (stereo unspecified) | False
Cc1ccc(S(=O)(=O)Oc2ccc3c4c(c(=O)oc3c2)CCCCC4)cc1 | False
C[C@]12CC[C@@H]3c4ccc(O)cc4C[C@@H](O)[C@H]3[C@@H]1CC[C@@H]2O | False
COc1cc(-c2nn3c(/C=C4/C(=O)Nc5ccccc54)c(-c4ccc(C)cc4)nc3s2)cc(OC)c1OC | True
COc1cc2cc3c(nc2cc1OC)CCN3Cc1ccc(NC(=O)Nc2ccc(F)cc2F)cc1 | False
CC(C)(C)NC/C(=C\c1ccccc1)C(=O)c1ccccc1 | True
CCCCCCCCN(CCCCCCCC)CCCCCCCCCN1CCCc2cc(OC)ccc21 | False
O=C(Nc1ccncc1)C(=O)c1cn(S(=O)(=O)c2ccc(F)cc2)c2ccccc12 | True
CCN(CC)CCSCCN(CC)CC | False
COC(=O)C(=C\c1ccc2c(c1)OCO2)/C(=C/c1ccc2c(c1)OCO2)C(=O)OC | False
CC1(C)CCC(=NNC(N)=S)CC1 | False
Cc1cc2ccccc2nc1-c1ccccc1F | False
CC[C@H](C)C(=O)O[C@H]1CCC=C2C=C[C@H](C)C(CCC3C[C@@H](O)CC(=O)O3)[C@H]21 (stereo partly specified) | True
CN(C)CC(O)c1ccc2cc(Br)c3ccccc3c2c1 (stereo unspecified) | True
CC(=O)OCc1cc(-c2nc3ccccc3[nH]c2=O)nn1-c1ccc(Cl)cc1 | False
CCN(CC)CCSCCCNc1c2ccc(Cl)cc2nc2ccc(OC)cc12 | True
COc1ccccc1/C=C/C(=O)c1ccccc1 | False
CCCCCCc1cc(N=Nc2ccc(S(=O)(=O)Nc3cc(C)nc(C)n3)cc2)c(O)cc1O | False
COc1cc(/C=N/NC(=O)c2ccccc2Nc2cccc(C(F)(F)F)c2)cc(OC)c1OC | True
N#CSCC1CC(O)(c2ccccc2)CC(c2ccc(Cl)cc2)O1 (stereo unspecified) | True
O=C1NC(=O)N(Cc2ccccc2)CC1Br (stereo unspecified) | False
COc1ccc2c(c1)O/C(=C\c1ncc([N+](=O)[O-])n1C)C2=O | True
COc1cc2c(cc1OCCCCCCN1CCN(CC(=O)Nc3ccc(Cl)cc3C(=O)c3ccccc3Cl)CC1)N=CC1CCCN1C2=O (stereo unspecified) | True
CC(=O)O[C@]1(C)CC[C@H]2[C@H](CNCCc3ccc(Cl)cc3)C(=O)O[C@@H]2C2=C(C)C(=O)C[C@H]21 | True
O=C(C[P+](c1ccccc1)(c1ccccc1)c1ccccc1)C[P+](c1ccccc1)(c1ccccc1)c1ccccc1 | True
CC1(C)OC2=C(CC1Br)C(=O)C(=O)c1ccccc12 (stereo unspecified) | True
COc1ccc(Nc2ncnc3c2c(SC)nn3-c2ccccc2)cc1 | True
ClCCOCCn1cnc2c(Cl)nc(Cl)nc21 | True
